B1: Pistol ribozyme (parent)
chain: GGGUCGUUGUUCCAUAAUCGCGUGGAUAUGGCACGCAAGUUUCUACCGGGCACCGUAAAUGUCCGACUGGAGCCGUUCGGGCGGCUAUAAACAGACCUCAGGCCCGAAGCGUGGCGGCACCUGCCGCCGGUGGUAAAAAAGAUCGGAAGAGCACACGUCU

Variants of: B1
PROCEDURE_SUMMARY: aptazyme ON/OFF ratio, guanine; higher = stronger switching; co-transcriptional cleavage with and without guanine
Answer each item with its documented aptazyme ON/OFF ratio.
Keep the answer to the number alone.

Kindly note the recorded aptazyme ON/OFF ratio for U7G U8G G9U U11G C12G C13A , which is 1.05

aptazyme ON/OFF ratio in this record for U8C G9C U11G C12G C13G : 1.12

// aptazyme ON/OFF ratio value for U7G U10A U11C C12G C13G : 1.03

The measured aptazyme ON/OFF ratio associated with U7G U8C G9A U10C U11G C12A C13A reads 1.11

// aptazyme ON/OFF ratio value for G9A U11A C12G C13G : 1.2

The reported value for U7G G9C U10G U11C C13G in terms of aptazyme ON/OFF ratio is 1.16

aptazyme ON/OFF ratio for U7A U8C U10G U11C C13U is 1.27

Record summary for U7C U8C G9U U10A U11C C13G : reported aptazyme ON/OFF ratio = 1.07

Entry U7A U8G G9U U10G C12U C13A — recorded aptazyme ON/OFF ratio = 1.49

Per the record, U7C G9C C12A C13A has aptazyme ON/OFF ratio of 1.05

Field aptazyme ON/OFF ratio (entry U7A U8A G9C U10A C12U C13A ) reads 1.09
